system.tested: FGF-R2 (Homo sapiens, UniProt P21802)
Sequence (P21802 22-821, species assumed): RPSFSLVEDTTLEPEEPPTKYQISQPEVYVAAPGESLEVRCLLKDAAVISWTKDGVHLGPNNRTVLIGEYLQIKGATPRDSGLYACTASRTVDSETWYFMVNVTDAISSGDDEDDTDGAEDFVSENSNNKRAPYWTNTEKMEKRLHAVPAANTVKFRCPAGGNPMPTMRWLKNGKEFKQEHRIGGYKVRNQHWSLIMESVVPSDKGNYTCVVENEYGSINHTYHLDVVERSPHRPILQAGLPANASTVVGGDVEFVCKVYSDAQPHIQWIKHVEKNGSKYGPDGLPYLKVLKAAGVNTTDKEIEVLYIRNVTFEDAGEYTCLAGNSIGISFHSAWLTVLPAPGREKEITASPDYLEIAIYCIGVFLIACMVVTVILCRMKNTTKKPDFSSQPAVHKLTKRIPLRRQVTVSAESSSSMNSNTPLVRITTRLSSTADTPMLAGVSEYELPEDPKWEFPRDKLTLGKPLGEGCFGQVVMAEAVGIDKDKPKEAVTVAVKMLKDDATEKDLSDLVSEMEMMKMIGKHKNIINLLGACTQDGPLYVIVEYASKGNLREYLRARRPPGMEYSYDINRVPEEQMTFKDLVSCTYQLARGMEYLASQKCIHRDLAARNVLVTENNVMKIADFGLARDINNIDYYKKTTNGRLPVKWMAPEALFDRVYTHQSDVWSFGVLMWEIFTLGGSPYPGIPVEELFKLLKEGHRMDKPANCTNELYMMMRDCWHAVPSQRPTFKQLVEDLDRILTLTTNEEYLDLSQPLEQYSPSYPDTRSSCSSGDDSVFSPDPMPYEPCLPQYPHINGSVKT
Let's look at some molecules and their measured IC50.
Numbers only here, please. The scale is nM.

// query Find the measured IC50: item CN1CCN(c2ccc(Nc3nc(N)n(C(=O)c4c(F)cccc4F)n3)cc2)CC1 [Cpd 71] , target or system FGF-R2 (Homo sapiens, UniProt P21802).
// result 441

// query Find the measured IC50: item Cc1cc(C)c(C(=O)n2nc(Nc3ccc(NS(C)(=O)=O)cc3)nc2N)s1 [Cpd 108] , target or system FGF-R2 (Homo sapiens, UniProt P21802).
// result 307

// query Find the measured IC50: item CCc1ccc(C(=O)n2nc(Nc3ccc(NS(C)(=O)=O)cc3)nc2N)s1 [Cpd 110] , target or system FGF-R2 (Homo sapiens, UniProt P21802).
// result 153

// query Find the measured IC50: item CC(O)c1ccc(F)c(C(=O)n2nc(Nc3ccc(S(N)(=O)=O)cc3)nc2N)c1F (stereo not drawn) [Cpd 58] , target or system FGF-R2 (Homo sapiens, UniProt P21802).
// result 96

// query Find the measured IC50: item CCc1ccc(C(=O)n2nc(Nc3ccc(S(=O)(=O)NC)cc3)nc2N)s1 [Cpd 84] , target or system FGF-R2 (Homo sapiens, UniProt P21802).
// result 300

// query Find the measured IC50: item Nc1ccc(F)c(C(=O)n2nc(Nc3ccc(S(N)(=O)=O)cc3)nc2N)c1F [Cpd 55] , target or system FGF-R2 (Homo sapiens, UniProt P21802).
// result 478

// query Find the measured IC50: item Cc1cc(C)c(C(=O)n2nc(Nc3ccc(S(=O)(=O)NCCN(C)C)cc3)nc2N)s1 [Cpd 107] , target or system FGF-R2 (Homo sapiens, UniProt P21802).
// result 235

// query Find the measured IC50: item Cc1ccsc1C(=O)n1nc(Nc2ccc(NS(C)(=O)=O)cc2)nc1N [Cpd 109] , target or system FGF-R2 (Homo sapiens, UniProt P21802).
// result 244

// query Find the measured IC50: item Cc1cc(C)c(C(=O)n2nc(Nc3ccc(-n4ccnc4)cc3)nc2N)s1 [Cpd 92] , target or system FGF-R2 (Homo sapiens, UniProt P21802).
// result 242
